# measurementProtocol: Drug metabolism in human liver microsomes harboring CYP2B6*1/*6 genotype assessed as CYP2B6 variant-mediated 8-hydroxyefavirenz metabolite formation after 15 mins by LC/MS/MS analysis
# Assay type: ADME
# assaySetup: 0.25 h
property: Km (µM)
Numeric only. Scale: µM

Q: Which Km is reported for this compound? O=C1Nc2ccc(Cl)cc2[C@@](C#CC2CC2)(C(F)(F)F)O1 [EFAVIRENZ]
Result: 15.2

----------
# measurementProtocol: Inhibition of CYP2B6 variant in human liver microsomes harboring CYP2B6*1/*6 genotype assessed as 8-hydroxyefavirenz formation using efavirenz as substrate after 15 mins by LC/MS/MS analysis
# Format: ADME
property: Ki (µM)
Numeric only. Scale: µM

Q: Which Ki is reported for this compound? C[C@@H](c1ncncc1F)[C@](O)(Cn1cncn1)c1ccc(F)cc1F
Result: 1.55

meta.source: ChEMBL document CHEMBL3526074
